Values compiled from PubChem BioAssay.

# METHOD_DESCRIPTION: reversal of MRP1-mediated doxorubicin resistance, pilot screen, H69AR cells, doxorubicin co-treatment (AID 601)
# COND: H69AR cells + 2 uM doxorubicin, CellTiter-Glo, 72 h; at 10 µM; stronger effect = higher value
# differential viability (reversal) values compiled below

COMPOUND: CC1CN(S(=O)(=O)c2cccc(C(=O)OCc3cc(=O)oc4cc(O)ccc34)c2)CC(C)O1 (stereo not drawn)
UNIT_LABEL: %
differential viability (reversal): 16.1

COMPOUND: COc1ccc(OC)c(NC(=O)C2CCN(c3cc(-c4ccccc4)nc4ncnn34)CC2)c1
UNIT_LABEL: %
differential viability (reversal): -0.75

COMPOUND: CCCOc1ccc([C@@H]2C3CN(C(=O)OCC)CC=C3C(C#N)=C(N)C2(C#N)C#N)cc1OC (stereo partly drawn)
UNIT_LABEL: %
differential viability (reversal): -11.8

COMPOUND: Cc1cc2c(s1)c1cnn(CC(=O)NCCc3ccccc3)c(=O)c1n2C
UNIT_LABEL: %
differential viability (reversal): 5.06

COMPOUND: COc1ccc(OCC(O)Cn2c(Br)nc3c2c(=O)[nH]c(=O)n3C)cc1 (stereo not drawn)
UNIT_LABEL: %
differential viability (reversal): -28.6

COMPOUND: Cc1ccccc1-n1c(=O)cc(N2CCN(C(=O)c3ccco3)CC2)[nH]c1=O
UNIT_LABEL: %
differential viability (reversal): 9.79

COMPOUND: CCOC(=O)N1CCN(c2c(N3CCN(c4ccccn4)CC3)c(=O)c2=O)CC1
UNIT_LABEL: %
differential viability (reversal): 9.85

COMPOUND: CN1CCc2nc(SCC(=O)Nc3ccc(F)cc3)c(C#N)cc2C1
UNIT_LABEL: %
differential viability (reversal): -4.23

COMPOUND: c1ccc(CC2CCN(c3nc4ccccc4n4nnnc34)CC2)cc1
UNIT_LABEL: %
differential viability (reversal): 8.36

COMPOUND: O=C(NC1CCCCC1)n1c(=O)oc2ccc(Cl)cc21
UNIT_LABEL: %
differential viability (reversal): 17.5

COMPOUND: O=c1oc2ccccc2c2c1ncn2-c1ccccc1
UNIT_LABEL: %
differential viability (reversal): -8.58

COMPOUND: Cc1ccc2[nH]c3c(N4CCOCC4)ncnc3c2c1
UNIT_LABEL: %
differential viability (reversal): -15.7

COMPOUND: CC1CCCCC1NC(=O)c1ccc(N2CCCC2=O)cc1 (stereo not drawn)
UNIT_LABEL: %
differential viability (reversal): 7.01

COMPOUND: CCc1ccccc1NC(=O)CN(c1cccc(OC)c1)S(C)(=O)=O
UNIT_LABEL: %
differential viability (reversal): 14.6

COMPOUND: O=c1[nH]c2ccccc2nc1NCCN1CCOCC1
UNIT_LABEL: %
differential viability (reversal): 7.97

COMPOUND: COc1ccc(C(=O)c2ccccc2)c(O)c1
UNIT_LABEL: %
differential viability (reversal): 13.6

COMPOUND: CCOC(=O)Nc1cc(OCC)c(NC(=O)C2CC2)cc1OCC
UNIT_LABEL: %
differential viability (reversal): 12.8

COMPOUND: CCn1c(SCC(=O)c2ccc3c(c2)OCCO3)nnc1-c1ccco1
UNIT_LABEL: %
differential viability (reversal): 0.66

COMPOUND: CCOC(=O)N1CCN(C(=O)CSc2ncnc3ccccc23)CC1
UNIT_LABEL: %
differential viability (reversal): 14.9

COMPOUND: Cc1nc(SCc2ccc(Br)cc2)[nH]c(=O)c1C
UNIT_LABEL: %
differential viability (reversal): 9.71

COMPOUND: Cc1nnc(C)n1/N=C/c1cccc(Oc2ccccc2)c1
UNIT_LABEL: %
differential viability (reversal): 4.77

COMPOUND: CC(C)(C)NC(=O)NC(=O)COc1ccccc1C#N
UNIT_LABEL: %
differential viability (reversal): 25.7

COMPOUND: COc1ccc2c(c1)n([O-])c1c([n+]2=O)CCC1
UNIT_LABEL: %
differential viability (reversal): -6

----------
# METHOD_DESCRIPTION: reversal of MRP1-mediated doxorubicin resistance, pilot screen, H69AR cells, doxorubicin co-treatment (AID 601)
# COND: H69AR cells + 2 uM doxorubicin, CellTiter-Glo, 72 h; measured here: viability with 2 uM doxorubicin; at 10 µM; stronger effect = lower value
Measured viability accompanies every entry in the list below.
OUTCOME_MEASURE: viability (%)

COMPOUND: CCOC(=O)c1c(-c2cccs2)csc1NC(=O)CCCC(=O)O
OUTCOME_MEASURE: viability
REPORTED_MEASUREMENT: 82.4
//
COMPOUND: Cc1c[nH]c2cccc(OCC(O)CNC(C)(C)C)c12 (stereo unspecified)
OUTCOME_MEASURE: viability
REPORTED_MEASUREMENT: 88
//
COMPOUND: CCn1nc(C(=O)OCC(=O)N2CCc3ccccc32)c2ccccc2c1=O
OUTCOME_MEASURE: viability
REPORTED_MEASUREMENT: 94.6
//
COMPOUND: C[C@@H]1C[C@H](O)c2cc(Cl)ccc2N1
OUTCOME_MEASURE: viability
REPORTED_MEASUREMENT: 79.4
//
COMPOUND: COC(=O)c1cc2oc(C)cc2n1CC(=O)N(C)c1ccccc1
OUTCOME_MEASURE: viability
REPORTED_MEASUREMENT: 88
//
COMPOUND: O=C(Nc1cccnc1)c1ccc2c(c1)C(=O)N(Cc1cccnc1)C2=O
OUTCOME_MEASURE: viability
REPORTED_MEASUREMENT: 94.7
//
COMPOUND: Cc1cc(NC(=O)COc2cccc(Oc3ccccc3)c2)no1
OUTCOME_MEASURE: viability
REPORTED_MEASUREMENT: 60.6
//
COMPOUND: O=C(Cn1nnc(-c2ccncc2)n1)Nc1ccc2c(c1)CCC2
OUTCOME_MEASURE: viability
REPORTED_MEASUREMENT: 96.4
//
COMPOUND: CCCn1c(N)c(C(=O)CSc2nnc(Cc3ccccc3)o2)c(=O)n(C)c1=O
OUTCOME_MEASURE: viability
REPORTED_MEASUREMENT: 98.2
//
COMPOUND: COc1ccc(OC(C)C(=O)N2CC(C)OC(C)C2)cc1 (stereo unspecified)
OUTCOME_MEASURE: viability
REPORTED_MEASUREMENT: 101
//
COMPOUND: Cc1ccc(N(CC(=O)NCC2CCCO2)S(C)(=O)=O)cc1Cl (stereo unspecified)
OUTCOME_MEASURE: viability
REPORTED_MEASUREMENT: 92.6

----------
# METHOD_DESCRIPTION: HUVEC growth inhibition – cell-based, human, primary screen (AID 575);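 further: 100% = median of untreated cell wells with 0.1% DMSO on each plate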
# COND: HUVEC proliferation, CellTiter-Glo luminescence, 72 h; at 10 µM; stronger effect = lower value

MOLECULE: O=C(Cn1nnc(-c2cccc(C(F)(F)F)c2)n1)NC(=O)NCc1ccco1
viability (%): 98.3
--
MOLECULE: CCOC(=O)N1CCN(S(=O)(=O)c2ccc(F)c(C(=O)Nc3cc(C)cc(C)c3)c2)CC1
viability (%): 78.6
--
MOLECULE: CC1CCc2cc(F)cc3c(O)c(C(=O)NCC4CCCO4)c(=O)n1c23 (stereo not drawn)
viability (%): 80.8
--
MOLECULE: N#Cc1cc2sc3nnc(-c4ccncc4)n3c2cc1C#N
viability (%): 37.8
--
MOLECULE: CCn1c(NCc2ccc(N(C)C)cc2)nc2ccccc21
viability (%): 101
--
MOLECULE: Cc1nc(SCCC(=O)O)c2ccccc2n1
viability (%): 88.4
--
MOLECULE: c1cc(CNc2ccc3c(c2)OCO3)ccn1
viability (%): 70.7
--
MOLECULE: CN(c1ccccc1)C(c1ccc(F)cc1)c1nnnn1CC1CCCO1 (stereo not drawn)
viability (%): 97
--
MOLECULE: O=C(O)C1CC(=O)N(c2ccc(OCc3ccccc3Cl)cc2)C1 (stereo not drawn)
viability (%): 95.9
--
MOLECULE: Cc1cc(NC(=O)CSc2nnc(COc3cccc(C)c3C)n2Cc2ccco2)no1
viability (%): 97.5
--
MOLECULE: O=S(=O)(Nc1ncccn1)c1ccc(Nc2ncnc3ccccc23)cc1
viability (%): 81.2
--
MOLECULE: CCCCCn1c(CN2CCN(C(=O)OCC)CC2)nc2c1c(=O)[nH]c(=O)n2C
viability (%): 88.9
--
MOLECULE: CCN(CCCNC(=O)CCNC(=O)Cn1ccc2ccccc2c1=O)c1ccccc1
viability (%): 109
--
MOLECULE: Cn1cccc1Cc1nnc(SCC(=O)Nc2ccccc2F)n1-c1ccc(F)cc1
viability (%): 103
--
MOLECULE: CC(=O)NC(=O)NC1CSCC1OC(C)=O (stereo not drawn)
viability (%): 106
--
MOLECULE: Cn1cc(CN2CCc3ccccc3C2)c2ccccc21
viability (%): 90.4
--
MOLECULE: O=C(O)C1CCCN1S(=O)(=O)c1ccc2ccccc2c1 (stereo not drawn)
viability (%): 101
--
MOLECULE: O=C(Cn1nc(C(F)(F)F)c2c1CCCC2)NCCN1CCOCC1
viability (%): 108
--
MOLECULE: COc1ccccc1-n1c(C)nnc1SCC(N)=O
viability (%): 101
--
MOLECULE: Cc1c(NC2=NC3(CCCCC3)Cc3ccccc32)c(=O)n(-c2ccccc2)n1C
viability (%): 95.5
--
MOLECULE: Cc1oc(C(=O)O)cc1CSCc1cc(C(=O)O)c(C)o1
viability (%): 92.9
--
MOLECULE: CCOC(=O)Cn1nnnc1C(C(C)C)N(Cc1cc2c(C)cc(C)cc2[nH]c1=O)C1CCCC1 (stereo not drawn)
viability (%): 58.6
--
MOLECULE: N#Cc1nc(-c2cccs2)oc1NCCc1ccccc1
viability (%): 84.3
